Test: Antioxidant activity assessed as ABTS radical cation scavenging activity
Type: physicochemical
pIC50: −log10 of the molar value.
// reported pIC50 for each item listed
measurement-kind: pIC50

[[record]]
smiles_str = "COc1cc(CN2CCCCC2)ccc1O"
measurement_kind = "pIC50"
result = 5.54

[[record]]
smiles_str = "COc1ccc2[nH]cc(CCNC(C)=O)c2c1"
measurement_kind = "pIC50"
result = 5.72


---

Molecular target: Butyrylcholinesterase (Rattus norvegicus, UniProt Q9JKC1)
Sequence (Q9JKC1 whole entry): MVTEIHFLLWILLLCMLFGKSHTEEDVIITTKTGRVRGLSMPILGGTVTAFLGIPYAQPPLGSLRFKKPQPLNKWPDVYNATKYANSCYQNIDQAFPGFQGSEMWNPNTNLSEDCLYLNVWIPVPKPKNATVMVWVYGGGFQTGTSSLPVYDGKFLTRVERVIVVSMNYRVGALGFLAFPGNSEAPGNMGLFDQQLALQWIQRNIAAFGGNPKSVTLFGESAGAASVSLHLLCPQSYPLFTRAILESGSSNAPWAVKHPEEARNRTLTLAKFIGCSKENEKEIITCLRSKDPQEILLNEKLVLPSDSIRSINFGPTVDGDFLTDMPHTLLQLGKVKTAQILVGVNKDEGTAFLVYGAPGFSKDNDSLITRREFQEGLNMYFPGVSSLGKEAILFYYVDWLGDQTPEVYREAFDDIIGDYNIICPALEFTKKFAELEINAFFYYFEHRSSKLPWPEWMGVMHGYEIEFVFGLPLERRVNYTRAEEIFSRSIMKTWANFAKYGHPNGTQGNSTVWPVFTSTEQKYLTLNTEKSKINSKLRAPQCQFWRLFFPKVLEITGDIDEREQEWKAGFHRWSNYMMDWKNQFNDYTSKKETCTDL
Assay: Inhibition of BChE in rat serum using butyrylthiocholine iodide substrate incubated for 15 mins by UV spectroscopy based Ellman's method
// reported IC50 for each item listed
measurement-kind: IC50 (nM)

[[record]]
molecule = "CCN(CC)Cc1ccc(OC(=O)N(C)C)c(OC)c1"
unit_descriptor = "nM"
result = 35

[[record]]
molecule = "COc1cccc(CN2CCCCC2)c1OC(=O)N(C)C"
unit_descriptor = "nM"
result = 3130

[[record]]
molecule = "COc1cc(CN2CCOCC2)ccc1OC(=O)N(C)C"
unit_descriptor = "nM"
result = 430

[[record]]
molecule = "COc1ccc(C(C)N2CCOCC2)cc1OC(=O)N(C)C (configuration not stated)"
unit_descriptor = "nM"
result = 270

[[record]]
molecule = "COc1ccc(C(C)N2CCCC2)cc1OC(=O)N(C)C (configuration not stated)"
unit_descriptor = "nM"
result = 82

[[record]]
molecule = "CCN(CC)C(C)c1ccc(OC)c(OC(=O)N(C)C)c1 (configuration not stated)"
unit_descriptor = "nM"
result = 130

[[record]]
molecule = "COc1ccc(CN2CCOCC2)cc1OC(=O)N(C)C"
unit_descriptor = "nM"
result = 120

[[record]]
molecule = "COc1ccc(CN2CCCC2)cc1OC(=O)N(C)C"
unit_descriptor = "nM"
result = 29

[[record]]
molecule = "COc1cc(CN2CCCCC2)ccc1OC(=O)N(C)C"
unit_descriptor = "nM"
result = 24

[[record]]
molecule = "COc1cc(C(C)N2CCOCC2)ccc1OC(=O)N(C)C (configuration not stated)"
unit_descriptor = "nM"
result = 310

[[record]]
molecule = "COc1ccc(CN2CCCCC2)cc1OC(=O)N(C)C"
unit_descriptor = "nM"
result = 10

[[record]]
molecule = "COc1cc(C(C)N2CCCCC2)ccc1OC(=O)N(C)C (configuration not stated)"
unit_descriptor = "nM"
result = 8

[[record]]
molecule = "CCN(CC)Cc1ccc(OC)c(OC(=O)N(C)C)c1"
unit_descriptor = "nM"
result = 79

[[record]]
molecule = "CCN(CC)C(C)c1ccc(OC(=O)N(C)C)c(OC)c1 (configuration not stated)"
unit_descriptor = "nM"
result = 63

[[record]]
molecule = "COc1cc(C(C)N2CCCC2)ccc1OC(=O)N(C)C (configuration not stated)"
unit_descriptor = "nM"
result = 18

[[record]]
molecule = "COc1cc(CN2CCCC2)ccc1OC(=O)N(C)C"
unit_descriptor = "nM"
result = 12

[[record]]
molecule = "COc1ccc(C(C)N2CCCCC2)cc1OC(=O)N(C)C (configuration not stated)"
unit_descriptor = "nM"
result = 34

